Assembled from different publications: IC50 for Tyrosine-protein kinase JAK3 (Homo sapiens, UniProt P52333).
recorded_endpoint: IC50 (nM)

// below: answered compounds
> print(dat)
                                   compound  recorded.endpoint  reported
1  CC(C)(C(CC#N)n1cc(-c2ncnc3[nH]ccc23)cn1)C(F)(F)F (stereo not drawn)               IC50       419
2  Cc1cnc(Nc2ccc(OCCOc3ccc(/N=N/c4ccc(C(=O)NCCC(=O)O)cc4)cc3C(=O)O)cc2)nc1Nc1cccc(S(=O)(=O)NC(C)(C)C)c1               IC50      6820
3  [2H]C([2H])([2H])C([2H])([2H])c1cc(O)c(F)cc1-c1ccc2c(-c3nc4c([nH]3)CN(C(=O)N(C)C)C4)n[nH]c2c1               IC50       0.2
4  N#CC[C@H](CCC(F)(F)F)n1cc(-c2ncnc3[nH]ccc23)cn1               IC50       116
5  [2H]C([2H])([2H])C([2H])([2H])c1cc(O)c(F)cc1-c1ccc2c(-c3nc4c([nH]3)CN(C(=O)N3CC[C@@H](O)C3)C4)n[nH]c2c1               IC50     0.095
6  [2H]C([2H])([2H])c1cc(O)c(F)cc1-c1ccc2c(-c3nc4c([nH]3)CN(C(=O)N(C)C)C4)n[nH]c2c1               IC50      0.32
7  [2H]C([2H])([2H])c1cc(O)c(F)cc1-c1ccc2c(-c3nc4c([nH]3)CN(C(=O)N3CCC(O)CC3)C4)n[nH]c2c1               IC50      0.18

a. [2H]C([2H])([2H])c1cc(O)c(F)cc1-c1ccc2c(-c3nc4c([nH]3)CN(C(=O)N3CC[C@@H](O)C3)C4)n[nH]c2c1
b. [2H]C([2H])([2H])c1cc(O)c(F)cc1-c1ccc2c(-c3nc4c([nH]3)CN(C(=O)NCCCO)C4)n[nH]c2c1
Enquiry: Compare the recorded IC50 of a and b ; state which is larger. Indicate which entry you chose by stating its label.
Return: b
(b: 0.25 nM, a: 0.16 nM)
